Data provenance: the supplement of paper PMC10567573

B1: ANKRD17 (parent)
chain: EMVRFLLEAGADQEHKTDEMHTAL

Variants of: B1
Test: protein stability index of a GFP-peptide fusion (GPS, HEK-293T) (PSI 1-6); higher = more stable;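 note: lentivirally expressed fusions sorted by FACS into six bins by GFP to DsRed ratio, PSI derived from sequencing read proportions per bin multiplied by bin number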
Settings: c terminus: a fixed tail appended
I would appreciate it if you labelled entries satisfied when protein stability index is 3 or higher, otherwise not satisfied.

Consider the worked cases shown below.
residueString	labelValue
EMVRFLLEAGADQEHKTDEMSTAL	satisfied
EMVRFLLEAGADQEWKTDEMHTAL	not satisfied
EMVRFLLEAGAWQEHKTDEMHTAL	not satisfied
EMVRFLLEAGADQAHKTDEMHTAL	not satisfied
EMVRFLLERGADQEHKTDEMHTAL	not satisfied

Challenge: For this variant, is measured protein stability index 3 or higher? ETVRFLLEAGADQEHKTDEMHTAL
Response given: satisfied

Challenge: Say whether EMVRFLLEAGATQEHKTDEMHTAL shows protein stability index of 3 or more.
Response given: not satisfied
